Please go through the items and note down their TGI.
tested on: MCF7 breast; experiment: NCI tumour cell line growth inhibition, 384-well format
Give bare numbers, in µM.

INSERT INTO results (molecule, readout_units, experimental_value) VALUES
  ('NS(=O)(=O)OC[C@H]1C[C@@H](Nc2ccnc3cc(-c4cccc(SC(F)(F)F)c4)nn23)[C@H](O)[C@@H]1O', 'µM', 0.0312);

We next turn to a different compound, shown below.
Looking up Cc1c(C)n(CCCN2CCN(C)CC2)c2ccc(Oc3cccc(C(=O)N4CCN(CCc5ccc(F)cc5)CC4)c3)cc12 , I see its TGI listed as 3.11

###

tested on: U251 glioblastoma; test: NCI tumour cell line growth inhibition, 384-well format
Please go through the items and note down their TGI.

Okay, here is my list. What is TGI for each of these?
1. CNC(=O)c1ccc(N2C(=S)N(c3cnc(C#N)c(C(F)(F)F)c3)C(=O)C23CCC3)cc1F
2. NS(=O)(=O)OC[C@H]1C[C@@H](Nc2ccnc3cc(-c4cccc(SC(F)(F)F)c4)nn23)[C@H](O)[C@@H]1O
3. Cc1c(C)n(CCCN2CCN(C)CC2)c2ccc(Oc3cccc(C(=O)N4CCN(CCc5ccc(F)cc5)CC4)c3)cc12
4. CN[C@H]1CN(c2ccc3c(=O)c(C(=O)O)cn(-c4nccs4)c3n2)C[C@@H]1OC
5. CCOC(=O)C1=CCCC[C@H]1S(=O)(=O)Nc1ccc(F)cc1Cl

> 100 µM
< 0.01 µM
3.1 µM
2.56 µM
41 µM
